Value source: PubChem BioAssay (NCI)

Test system: HL-60(TB) leukemia
assay.name: NCI tumour cell line growth inhibition, 48 h
TGI values, listed per item
quantity.name: TGI

1) O=C(O)C(C1NCCS1)N1C(=O)c2ccccc2C1=O (centres undefined) | > 100 µM
2) O=NN(CC(=O)NNc1ccccc1)CC(=O)NNc1ccccc1 | > 100 µM
3) CCOC(=O)c1nc2sc(Cl)cn2c1/C=N/N=C(N)N | > 100 µM
4) O=c1c2cc([N+](=O)[O-])ccc2[nH]n1Cc1ccccc1Cl | > 100 µM

* * *

Tested on: TK-10 renal
assay.name: NCI tumour cell line growth inhibition, 48 h
TGI values, listed per item
quantity.name: TGI

1) CCSc1c2cc(OC)ccc2nc2ccc(OC)cc12 | > 43.7 µM
2) CC(C)(CO)CNc1nc(N)nc(Cl)c1C=O | > 100 µM
3) O=S(=O)(c1ccccc1)C1(C2(S(=O)(=O)c3ccccc3)CCN=N2)CCN=N1 (stereo not given) | > 100 µM
4) COP(=O)(OC)[C@@](O)(c1ccccc1)[C@@H](O)[C@@H](O)c1ccccc1 | > 100 µM
5) CCOC(=O)c1c(C)n(Cc2ccc(Cl)cc2Cl)c2c1cc(O)c1[nH]c(Cc3ccccc3)nc12 | 29 µM
6) CC1(C)CCOC(Sc2ccccc2)C1 (stereo not given) | > 100 µM
7) CCCOC(=O)C1C(c2ccc(OC)cc2)NC(c2ccc(OC)cc2)C(C(=O)OCCC)S1(=O)=O (stereo not given) | > 100 µM
8) CSCCCNC(=O)c1csc(-c2csc(CCNC(=O)CNC(=O)OC(C)(C)C)n2)n1 | > 100 µM
9) CC(=O)/C=C1/C(=O)C(CC(C)C)=C1CC(C)C | > 100 µM
10) Nc1ncnc2c1ncn2C1(CO)OC(CO)C(O)C1O (stereo not given) | > 100 µM
11) CCOC(=O)c1sc2c(c1OC(=O)c1ccco1)c(=O)n(-c1ccccc1)c(=S)n2-c1ccccc1 | > 100 µM
12) O=S(=O)([O-])c1ccc(C=Nc2ccccc2)c([O-])c1.O=S(=O)([O-])c1ccc(C=Nc2ccccc2)c([O-])c1.[Co+2] | > 100 µM
13) CC1CCC2C(C(=O)O[C@H]3C4C=CO[C@@H](OC5OC(CO)C(O)C(O)C5O)C4[C@@]4(CO)O[C@@H]34)=CO[C@@H](OC3OC(CO)C(O)C(O)C3O)C12 (stereo not given in full) | > 10 µM
14) COc1cc2c(/C=C3/C(=O)Nc4cc(C)c(O)cc43)c(Cl)[nH]c2cc1C | 7.22 µM
15) Nc1ncnc2occ(-c3ccc(NC(=O)Nc4cccc(C(F)(F)F)c4)cc3)c12 | 11.8 µM
16) CC(C)CC1CC2C(=O)N(c3ccccc3)C(=O)C2c2[nH]c3ccccc3c21 (stereo not given) | > 40.1 µM
17) O=C(O)C(C1NCCS1)N1C(=O)c2ccccc2C1=O (stereo not given) | > 100 µM
18) CCCCCCCCCCCCCCCCNc1nc(=O)n(C2CC(O)C(COP(=O)(O)OC3CC(n4cc(F)c(=O)[nH]c4=O)OC3CO)O2)cc1F (stereo not given) | > 100 µM
19) COc1cc(Br)c(/C=N/N=C(\N)NO)cc1OC | > 100 µM
20) CC1=CC(=O)c2ccc3c4ccccc4n(C)c3c2C1=O | > 100 µM
21) O=C(O)CNc1ncc2c(n1)-c1ccccc1OC2 | > 100 µM
22) COc1ccc(C)cc1-c1ccc(-c2cc(C)ccc2OC)o1 | > 100 µM
23) Cc1nsc2cc(Cl)n(C)c(=O)c12 | > 100 µM
24) COc1cccc(C2=C(c3cn(C)c4c(C)cccc34)C(=O)NC2=O)c1 | > 25 µM
25) CN(COC(=O)C(C)(C)C)c1nc(N(C)COC(=O)C(C)(C)C)nc(N(C)COC(=O)C(C)(C)C)n1 | > 100 µM
26) CCOC(=O)c1nc2sc(Cl)cn2c1/C=N/N=C(N)N | 47.6 µM
27) O=C(CC(=O)n1nc(-c2ccccc2)c(N=Nc2ccc([N+](=O)[O-])cc2)c1-c1ccccc1)Nc1ccc(Cl)cc1 | 69.1 µM
28) Cc1ccc(S(=O)(=O)NC(=O)Nc2ncn[nH]2)cc1 | > 100 µM
29) CS(C)(=O)=Nn1c(=O)n2n(c1=O)[C@H]1CC[C@@H]2C1 | > 100 µM
30) CCOC(=O)N1C/C(=C\c2ccc(N(C)C)cc2)C(=O)/C(=C/c2ccc(N(C)C)cc2)C1 | > 100 µM
